normalised inhibition (eCFP-eYFP dual reporter) values for the substances below.
target: MRFAP1; assay: reporter assay of Huesken 2005; conditions: siRNA; further: test concentration or dose not given here
Oligonucleotides are written 5' to 3', each unit as a sugar letter and its base; * is a phosphorothioate linkage, no mark a phosphodiester; rarer units and linkages stand in square brackets, end groups in braces. Plain capitals give the bases only. d = 2'-deoxy (DNA); r = 2'-OH (RNA)
Write down the numeric answer in % and omit the unit.

Some substances with known normalised inhibition (eCFP-eYFP dual reporter) results, for comparison:
In [3]: df
Out[3]:
                                  substance  unit_spec  numeric_value
0  sense rGrGrGrUrGrArCrCrUrGrArUrArGrCrUrCrCrCdTdT / antisense rGrGrGrArGrCrUrArUrCrArGrGrUrCrArCrCrCdAdA          %           87.1
1  sense rGrGrArGrGrArUrUrGrUrArUrUrGrUrUrUrCrUdTdT / antisense rArGrArArArCrArArUrArCrArArUrCrCrUrCrCdGdA          %            105
2  sense rUrGrUrUrCrUrCrArCrUrGrArCrArCrUrArCrGdTdT / antisense rCrGrUrArGrUrGrUrCrArGrUrGrArGrArArCrAdGdA          %           68.9
3  sense rUrArUrCrCrCrCrArUrArUrArUrUrUrGrArGrGdTdT / antisense rCrCrUrCrArArArUrArUrArUrGrGrGrGrArUrAdCdC          %           48.6
4  sense rArArArCrUrUrCrArArGrGrArArGrArGrGrCrGdTdT / antisense rCrGrCrCrUrCrUrUrCrCrUrUrGrArArGrUrUrUdTdG          %           66.3

Next, consider the following substance.
**Q:** Returns the measured normalised inhibition (eCFP-eYFP dual reporter) for the input substance. Input: sense rGrArGrArGrCrCrUrUrUrGrUrUrUrUrCrCrUrUdTdT / antisense rArArGrGrArArArArCrArArArGrGrCrUrCrUrCdTdG
**A:** 106

----------
biological target: UBE2W; assay: reporter assay of Huesken 2005; details: siRNA
Oligonucleotides are written 5' to 3', each unit as a sugar letter and its base; * is a phosphorothioate linkage, no mark a phosphodiester; rarer units and linkages stand in square brackets, end groups in braces. Plain capitals give the bases only. d = 2'-deoxy (DNA); r = 2'-OH (RNA)
normalised inhibition (eCFP-eYFP dual reporter) values for the substances below.
Write down the numeric answer in % and omit the unit.

Some substances with known normalised inhibition (eCFP-eYFP dual reporter) results, for comparison:
>>> print(df.to_string())
                                  substance  unit_spec  numeric_value
0  sense rArUrGrArCrCrUrUrArArArUrGrArGrArArGrAdTdT / antisense rUrCrUrUrCrUrCrArUrUrUrArArGrGrUrCrArUdTdC          %           68.9
1  sense rUrArArCrArGrArArGrArCrUrGrGrUrCrCrCrCdTdT / antisense rGrGrGrGrArCrCrArGrUrCrUrUrCrUrGrUrUrAdGdA          %           64.7
2  sense rUrUrUrArCrUrGrGrUrGrArArArArUrArUrUrCdTdT / antisense rGrArArUrArUrUrUrUrCrArCrCrArGrUrArArAdCdA          %           91.2

**Q:** Returns the measured normalised inhibition (eCFP-eYFP dual reporter) for the input substance. Input: sense rUrArCrUrGrGrUrGrArArArArUrArUrUrCrCrUdTdT / antisense rArGrGrArArUrArUrUrUrUrCrArCrCrArGrUrAdAdA
**A:** 94.4

**Q:** Returns the measured normalised inhibition (eCFP-eYFP dual reporter) for the input substance. Input: sense rCrUrGrGrUrGrArArArArUrArUrUrCrCrUrGrUdTdT / antisense rArCrArGrGrArArUrArUrUrUrUrCrArCrCrArGdTdA
**A:** 108

**Q:** Returns the measured normalised inhibition (eCFP-eYFP dual reporter) for the input substance. Input: sense rUrArGrArCrArUrGrGrArArGrGrUrGrCrArCrCdTdT / antisense rGrGrUrGrCrArCrCrUrUrCrCrArUrGrUrCrUrAdCdA
**A:** 38.9

**Q:** Returns the measured normalised inhibition (eCFP-eYFP dual reporter) for the input substance. Input: sense rGrArCrArUrGrGrArArGrGrUrGrCrArCrCrArGdTdT / antisense rCrUrGrGrUrGrCrArCrCrUrUrCrCrArUrGrUrCdTdA
**A:** 94.9

**Q:** Returns the measured normalised inhibition (eCFP-eYFP dual reporter) for the input substance. Input: sense rGrGrUrCrArUrGrUrUrUrArCrUrGrGrUrGrArAdTdT / antisense rUrUrCrArCrCrArGrUrArArArCrArUrGrArCrCdTdG
**A:** 103

**Q:** Returns the measured normalised inhibition (eCFP-eYFP dual reporter) for the input substance. Input: sense rArCrCrArCrCrGrGrArUrArArUrUrCrUrUrUrUdTdT / antisense rArArArArGrArArUrUrArUrCrCrGrGrUrGrGrUdCdG
**A:** 96.7

----------
target: UBE2L6; assay: reporter assay of Huesken 2005; conditions: siRNA
Oligonucleotides are written 5' to 3', each unit as a sugar letter and its base; * is a phosphorothioate linkage, no mark a phosphodiester; rarer units and linkages stand in square brackets, end groups in braces. Plain capitals give the bases only. d = 2'-deoxy (DNA); r = 2'-OH (RNA)
normalised inhibition (eCFP-eYFP dual reporter) values for the substances below.
Write down the numeric answer in % and omit the unit.

>>> print(df.to_string())
                                  substance  numeric_value
0  sense rCrCrCrUrGrCrGrGrArUrGrGrArCrCrUrCrGrCdTdT / antisense rGrCrGrArGrGrUrCrCrArUrCrCrGrCrArGrGrGdGdC           59.7

**Q:** Returns the measured normalised inhibition (eCFP-eYFP dual reporter) for the input substance. Input: sense rGrGrArGrCrUrGrUrUrCrArGrArArArGrArArUdTdT / antisense rArUrUrCrUrUrUrCrUrGrArArCrArGrCrUrCrCdGdG
**A:** 108

**Q:** Returns the measured normalised inhibition (eCFP-eYFP dual reporter) for the input substance. Input: sense rArCrCrUrCrGrCrUrGrArCrCrUrGrCrUrGrArCdTdT / antisense rGrUrCrArGrCrArGrGrUrCrArGrCrGrArGrGrUdCdC
**A:** 58.6

----------
target: UBE2C; test: reporter assay of Huesken 2005; conditions: siRNA
Oligonucleotides are written 5' to 3', each unit as a sugar letter and its base; * is a phosphorothioate linkage, no mark a phosphodiester; rarer units and linkages stand in square brackets, end groups in braces. Plain capitals give the bases only. d = 2'-deoxy (DNA); r = 2'-OH (RNA)
VALUE_KIND: normalised inhibition (eCFP-eYFP dual reporter) (%)
Write down the numeric answer in % and omit the unit.

Some substances with known normalised inhibition (eCFP-eYFP dual reporter) results, for comparison:
                                  substance  unit_spec  numeric_value
0  sense rCrCrArCrArGrUrGrArArGrUrUrCrCrUrCrArCdTdT / antisense rGrUrGrArGrGrArArCrUrUrCrArCrUrGrUrGrGdGdC          %           74.3
1  sense rCrArUrGrCrUrGrCrCrGrArGrCrUrCrUrGrGrAdTdT / antisense rUrCrCrArGrArGrCrUrCrGrGrCrArGrCrArUrGdTdG          %           90.5

Next, consider the following substance.
**Q:** Record sense rUrArUrGrArUrGrUrCrArGrGrArCrCrArUrUrCdTdT / antisense rGrArArUrGrGrUrCrCrUrGrArCrArUrCrArUrAdCdA : what is its normalised inhibition (eCFP-eYFP dual reporter) with UBE2C?
**A:** 32.1

----------
target: UBE2V1; experiment: reporter assay of Huesken 2005; conditions: siRNA
Oligonucleotides are written 5' to 3', each unit as a sugar letter and its base; * is a phosphorothioate linkage, no mark a phosphodiester; rarer units and linkages stand in square brackets, end groups in braces. Plain capitals give the bases only. d = 2'-deoxy (DNA); r = 2'-OH (RNA)
VALUE_KIND: normalised inhibition (eCFP-eYFP dual reporter) (%)
Write down the numeric answer in % and omit the unit.

Some substances with known normalised inhibition (eCFP-eYFP dual reporter) results, for comparison:
In [3]: df
Out[3]:
                                  substance  numeric_value
0  sense rUrArGrCrUrGrGrGrGrUrCrUrArGrArArGrArUdTdT / antisense rArUrCrUrUrCrUrArGrArCrCrCrCrArGrCrUrAdAdC           82.8
1  sense rGrGrArUrGrArUrArArUrUrGrGrGrCrCrUrCrCdTdT / antisense rGrGrArGrGrCrCrCrArArUrUrArUrCrArUrCrCdCdT           70.5

Next, consider the following substance.
**Q:** Returns the measured normalised inhibition (eCFP-eYFP dual reporter) for the input substance. Input: sense rGrGrGrUrCrUrArGrArArGrArUrGrArCrGrArAdTdT / antisense rUrUrCrGrUrCrArUrCrUrUrCrUrArGrArCrCrCdCdA
**A:** 96.3

The measured values listed here are drawn from the OligoGym collection.
